# TARGET OR SYSTEM: human PCSK9 / human LDLR EGFa domain interaction (Homo sapiens, UniProt Q8NBP7)
# Sequence (Q8NBP7 153-692): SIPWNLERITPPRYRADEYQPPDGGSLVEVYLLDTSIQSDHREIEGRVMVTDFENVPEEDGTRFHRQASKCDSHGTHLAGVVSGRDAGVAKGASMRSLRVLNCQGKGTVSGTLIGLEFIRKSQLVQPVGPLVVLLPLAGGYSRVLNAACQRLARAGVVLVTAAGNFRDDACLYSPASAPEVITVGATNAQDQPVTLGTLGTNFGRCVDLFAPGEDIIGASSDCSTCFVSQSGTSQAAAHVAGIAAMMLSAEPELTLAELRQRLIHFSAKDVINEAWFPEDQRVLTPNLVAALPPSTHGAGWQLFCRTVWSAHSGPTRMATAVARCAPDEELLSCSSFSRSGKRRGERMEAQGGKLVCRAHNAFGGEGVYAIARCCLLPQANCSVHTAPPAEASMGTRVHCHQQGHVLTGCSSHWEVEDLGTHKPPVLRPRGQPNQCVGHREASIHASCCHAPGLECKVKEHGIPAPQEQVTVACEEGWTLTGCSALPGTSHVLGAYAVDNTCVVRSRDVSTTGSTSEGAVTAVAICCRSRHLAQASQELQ
# Sequence (Q8NBP7 31-152 partner limits assumed): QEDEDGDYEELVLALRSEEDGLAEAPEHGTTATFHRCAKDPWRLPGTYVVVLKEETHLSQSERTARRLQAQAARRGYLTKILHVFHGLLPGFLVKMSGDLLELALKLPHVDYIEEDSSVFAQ
# ASSAY DETAILS: TR-FRET assay of inhibition of the PCSK9-LDLR protein-protein interaction
# Type: binding
# MEASUREMENT CONTEXT: 20 nM biotinylated human PCSK9 + 20 nM his-tagged human LDLR EGFa domain, 2 hours room temperature
*1 amine or outer side, *2 acyl side, *3 side chain or, on linkers, in order; H or OH if unused. Where a SMILES comes first, the peptide text is derived from it. Bridges are numbered along the chain shown (N, C = ends). [ ]: non-standard residue; d: D form. Pro(3R,4S-CMe2) = CC1(C)[C@@H]2[C@@H](C(=O)O)NC[C@@H]21; Trp(7-aza) = N[C@@H](Cc1c[nH]c2ncccc12)C(=O)O; mXylylene = c1cc(C[*:1])cc(C[*:2])c1; Tle = CC(C)(C)[C@H](N)C(=O)O; αMeV = CC(C)[C@](C)(N)C(=O)O; αMeP = C[C@@]1(C(=O)O)CCCN1; hSer = N[C@@H](CCO)C(=O)O; Nva = CCC[C@H](N)C(=O)O; Aib = CC(C)(N)C(=O)O; Mpa = O=C(O)CCS
Listed molecules paired with reported IC50

| MOLECULE | IC50 |
| --- | --- |
| CCC[C@@H]1NC(=O)[C@H](Cc2c[nH]c3ncccc23)NC(=O)[C@H]([C@@H](C)O)NC(=O)[C@H](Cc2c[nH]cn2)NC(=O)[C@H](Cc2ccc(O)cc2)NC(=O)[C@H](C(C)(C)C)NC(=O)CCSCc2cccc(c2)CSC[C@@H](C(N)=O)NC(=O)[C@H]([C@@H](C)O)NC(=O)[C@]2(C)CCCN2C(=O)[C@H](Cc2ccc(O)cc2)NC(=O)[C@H](CCC(=O)O)NC1=O [Compound 075] ([Mpa][Tle]YHT[Trp(7-aza)][Nva]EY[αMeP]TC-NH2; linker 1-12 via mXylylene) | 0.1 to 1 µM |

Q: Name the reported IC50 value associated with the molecule CC(C)[C@]1(C)NC(=O)[C@H](Cc2ccc(O)cc2)NC(=O)[C@H](C)NC(=O)C(C)(C)NC(=O)[C@H](Cc2c[nH]c3ncccc23)NC(=O)[C@H]([C@@H](C)O)NC(=O)[C@@H]2CCCN2C(=O)[C@H](Cc2ccc(O)cc2)NC(=O)[C@H](C(C)(C)C)NC(=O)CCSCc2cccc(c2)CSC[C@@H](C(N)=O)NC(=O)[C@H](CCCCN)NC1=O [Compound 019] ([Mpa][Tle]YPT[Trp(7-aza)][Aib]AY[αMeV]KC-NH2; linker 1-12 via mXylylene)
Ans: 21 to 50 µM

Q: Give its IC50 value. Item: CCC[C@@H]1NC(=O)[C@H](Cc2c[nH]c3ncccc23)NC(=O)[C@H]([C@@H](C)O)NC(=O)[C@@H]2[C@@H]3[C@H](CN2C(=O)[C@H](Cc2ccc(O)cc2)NC(=O)[C@H](C(C)(C)C)NC(=O)CCSCc2cccc(c2)CSC[C@@H](C(N)=O)NC(=O)[C@H]([C@@H](C)O)NC(=O)[C@H](CCC)NC(=O)[C@H](Cc2ccc(O)cc2)NC(=O)[C@H](CCC(=O)O)NC1=O)C3(C)C [Compound 008] ([Mpa][Tle]Y[Pro(3R,4S-CMe2)]T[Trp(7-aza)][Nva]EY[Nva]TC-NH2; linker 1-12 via mXylylene)
Ans: 0.1 to 1 µM

Q: Record request: IC50 value, item CCC[C@@H]1NC(=O)[C@H](Cc2ccc(O)cc2)NC(=O)[C@H](CCC(=O)O)NC(=O)[C@H](CCC)NC(=O)[C@H](Cc2c[nH]c3ncccc23)NC(=O)[C@H]([C@@H](C)O)NC(=O)[C@H](Cc2cnc[nH]2)NC(=O)[C@H](Cc2ccc(O)cc2)NC(=O)[C@H](C(C)(C)C)NC(=O)CCSCc2cccc(c2)CSC[C@@H](C(N)=O)NC(=O)[C@H](CCO)NC1=O [Compound 074] ([Mpa][Tle]YHT[Trp(7-aza)][Nva]EY[Nva][hSer]C-NH2; linker 1-12 via mXylylene)
Ans: 0.1 to 1 µM

---

Parameter pIC50: see the listing below.
# TARGET OR SYSTEM: human PCSK9 / human LDLR EGFa domain interaction (Homo sapiens)
# ASSAY DETAILS: TR-FRET assay of inhibition of the PCSK9-LDLR protein-protein interaction
# MEASUREMENT CONTEXT: 20 nM biotinylated human PCSK9 + 20 nM his-tagged human LDLR EGFa domain, 2 hours room temperature
pIC50: −log10 of the molar value. *1 amine or outer side, *2 acyl side, *3 side chain or, on linkers, in order; H or OH if unused. Where a SMILES comes first, the peptide text is derived from it. Bridges are numbered along the chain shown (N, C = ends). [ ]: non-standard residue; d: D form. Pro(trans-4-Ph) = O=C(O)[C@@H]1C[C@@H](c2ccccc2)CN1; Trp(7-aza) = N[C@@H](Cc1c[nH]c2ncccc12)C(=O)O; pT = C[C@@H](OP(=O)(O)O)[C@H](N)C(=O)O; mXylylene = c1cc(C[*:1])cc(C[*:2])c1; Chg = N[C@H](C(=O)O)C1CCCCC1; Tle = CC(C)(C)[C@H](N)C(=O)O; αMeV = CC(C)[C@](C)(N)C(=O)O; Nva = CCC[C@H](N)C(=O)O; Aib = CC(C)(N)C(=O)O; Mpa = O=C(O)CCS

Consider the following illustrative entries.
| COMPOUND | pIC50 |
| --- | --- |
| CCC[C@@H]1NC(=O)[C@H](Cc2c[nH]c3ncccc23)NC(=O)[C@H]([C@@H](C)O)NC(=O)[C@@H]2C[C@@H](c3ccccc3)CN2C(=O)[C@H](Cc2ccc(O)cc2)NC(=O)[C@H](C(C)(C)C)NC(=O)CCSCc2cccc(c2)CSC[C@@H](C(N)=O)NC(=O)[C@H]([C@@H](C)O)NC(=O)[C@H](CCC)NC(=O)[C@H](Cc2ccc(O)cc2)NC(=O)[C@H](CCC(=O)O)NC1=O [Compound 005] ([Mpa][Tle]Y[Pro(trans-4-Ph)]T[Trp(7-aza)][Nva]EY[Nva]TC-NH2; linker 1-12 via mXylylene) | 4.92 to 6.00 |
| CC(C)[C@]1(C)NC(=O)[C@H](Cc2ccc(O)cc2)NC(=O)[C@H](C)NC(=O)C(C)(C)NC(=O)[C@H](Cc2c[nH]c3ncccc23)NC(=O)[C@H]([C@@H](C)O)NC(=O)[C@@H]2CCCN2C(=O)[C@H](Cc2ccc(O)cc2)NC(=O)[C@H](C(C)(C)C)NC(=O)CCSCc2cccc(c2)CSC[C@@H](C(N)=O)NC(=O)[C@H]([C@@H](C)OP(=O)(O)O)NC1=O [Compound 015] ([Mpa][Tle]YPT[Trp(7-aza)][Aib]AY[αMeV][pT]C-NH2; linker 1-12 via mXylylene) | 7.00 to 9.00 |
| CCC[C@H](NC(C)=O)C(=O)N[C@H]1CSCc2cccc(c2)CSC[C@@H](C(N)=O)NC(=O)[C@H]([C@@H](C)O)NC(=O)[C@H](C2CCCCC2)NC(=O)[C@H](Cc2c[nH]c3ncccc23)NC(=O)[C@H](Cc2cnc[nH]2)NC(=O)[C@H](CCC(=O)O)NC(=O)[C@H](Cc2c[nH]c3ncccc23)NC(=O)[C@H]([C@@H](C)O)NC(=O)[C@H]2CCCN2C(=O)[C@H](Cc2ccc(O)cc2)NC(=O)[C@H](C(C)(C)C)NC1=O [Compound 001] (Ac-[Nva]C[Tle]Y[dP]T[Trp(7-aza)]EH[Trp(7-aza)][Chg]TC-NH2; linker 2-13 via mXylylene) | 4.92 to 6.00 |

Q: Returns the measured pIC50 for the input compound. Input: CC(C)[C@]1(C)NC(=O)[C@H](Cc2ccc(O)cc2)NC(=O)[C@H](C)NC(=O)C(C)(C)NC(=O)[C@H](Cc2c[nH]c3ncccc23)NC(=O)[C@H]([C@@H](C)O)NC(=O)[C@@H]2CCCN2C(=O)[C@H](Cc2ccc(O)cc2)NC(=O)[C@H](C(C)(C)C)NC(=O)CCSCc2cccc(c2)CSC[C@@H](C(N)=O)NC(=O)[C@H](CO)NC1=O [Compound 018] ([Mpa][Tle]YPT[Trp(7-aza)][Aib]AY[αMeV]SC-NH2; linker 1-12 via mXylylene)
Ans: 7.00 to 9.00

---

# TARGET OR SYSTEM: PCSK9 (Homo sapiens, UniProt Q8NBP7)
# Construct: biotin (biotinylated)
# Sequence (Q8NBP7 153-692): as the sequence (Q8NBP7 153-692) above
# ASSAY DETAILS: PCSK9 Alexa FRET Standard assay (displacement of AlexaFluor647-tagged cyclic peptide Reagent A)
# Assay type: binding
# MEASUREMENT CONTEXT: 0.5 nM PCSK9, 20 nM AF cyclic peptide Reagent A
pIC50: −log10 of the molar value. *1 amine or outer side, *2 acyl side, *3 side chain or, on linkers, in order; H or OH if unused. Where a SMILES comes first, the peptide text is derived from it. Bridges are numbered along the chain shown (N, C = ends). [ ]: non-standard residue; d: D form. ξ: configuration not given here. Trp(7-aza) = N[C@@H](Cc1c[nH]c2ncccc12)C(=O)O; mXylylene(5-F) = Fc1cc(C[*:1])cc(C[*:2])c1; mXylylene = c1cc(C[*:1])cc(C[*:2])c1; Tle = CC(C)(C)[C@H](N)C(=O)O; αMeV = CC(C)[C@](C)(N)C(=O)O; ξαMeS = CC(N)(CO)C(=O)O; Aib = CC(C)(N)C(=O)O
READOUT LABEL: pIC50

| COMPOUND | TARGET OR SYSTEM | pIC50 |
| --- | --- | --- |
| CC(=O)N[C@H]1CSCc2cc(F)cc(c2)CSC[C@@H](C(N)=O)NC(=O)[C@H]([C@@H](C)O)NC(=O)[C@](C)(C(C)C)NC(=O)[C@H](Cc2ccc(O)cc2)NC(=O)[C@H](C)NC(=O)C(C)(C)NC(=O)[C@H](Cc2c[nH]c3ncccc23)NC(=O)[C@H]([C@@H](C)O)NC(=O)[C@@H]2CCCN2C(=O)[C@H](Cc2ccc(O)cc2)NC(=O)[C@H](C(C)(C)C)NC1=O [Compound 026] (Ac-C[Tle]YPT[Trp(7-aza)][Aib]AY[αMeV]TC-NH2; linker 1-12 via mXylylene(5-F)) | PCSK9 (Homo sapiens, UniProt Q8NBP7) | 7.00 to 9.00 |

Please examine the following record next.
Q: Data request, read-out pIC50, for COCC1(C)NC(=O)[C@H](Cc2c[nH]c3ncccc23)NC(=O)[C@H]([C@@H](C)O)NC(=O)[C@@H]2CCCN2C(=O)[C@H](Cc2ccc(O)cc2)NC(=O)[C@H](C(C)(C)C)NC(=O)[C@@H](NC(C)=O)CSCc2cccc(c2)CSC[C@H](C(N)=O)NC(=O)[C@H]([C@@H](C)O)NC(=O)[C@](C)(C(C)C)NC(=O)[C@H](Cc2ccc(O)cc2)NC(=O)[C@H](C)NC1=O (some centres unmarked) [Compound 035] (Ac-C[Tle]YPT[Trp(7-aza)][ξαMeS](Me)AY[αMeV]T[dC]-NH2; linker 1-12 via mXylylene)
Ans: 6.00 to 7.00

Data provenance: patent US11505575B2
